# MEASURED ON: Voltage-gated N-type calcium channel alpha-1B subunit/Amyloid beta A4 precursor protein-binding family A member 1 (Homo sapiens, UniProt Q00975+Q02410)
# Sequence (Q00975 whole entry): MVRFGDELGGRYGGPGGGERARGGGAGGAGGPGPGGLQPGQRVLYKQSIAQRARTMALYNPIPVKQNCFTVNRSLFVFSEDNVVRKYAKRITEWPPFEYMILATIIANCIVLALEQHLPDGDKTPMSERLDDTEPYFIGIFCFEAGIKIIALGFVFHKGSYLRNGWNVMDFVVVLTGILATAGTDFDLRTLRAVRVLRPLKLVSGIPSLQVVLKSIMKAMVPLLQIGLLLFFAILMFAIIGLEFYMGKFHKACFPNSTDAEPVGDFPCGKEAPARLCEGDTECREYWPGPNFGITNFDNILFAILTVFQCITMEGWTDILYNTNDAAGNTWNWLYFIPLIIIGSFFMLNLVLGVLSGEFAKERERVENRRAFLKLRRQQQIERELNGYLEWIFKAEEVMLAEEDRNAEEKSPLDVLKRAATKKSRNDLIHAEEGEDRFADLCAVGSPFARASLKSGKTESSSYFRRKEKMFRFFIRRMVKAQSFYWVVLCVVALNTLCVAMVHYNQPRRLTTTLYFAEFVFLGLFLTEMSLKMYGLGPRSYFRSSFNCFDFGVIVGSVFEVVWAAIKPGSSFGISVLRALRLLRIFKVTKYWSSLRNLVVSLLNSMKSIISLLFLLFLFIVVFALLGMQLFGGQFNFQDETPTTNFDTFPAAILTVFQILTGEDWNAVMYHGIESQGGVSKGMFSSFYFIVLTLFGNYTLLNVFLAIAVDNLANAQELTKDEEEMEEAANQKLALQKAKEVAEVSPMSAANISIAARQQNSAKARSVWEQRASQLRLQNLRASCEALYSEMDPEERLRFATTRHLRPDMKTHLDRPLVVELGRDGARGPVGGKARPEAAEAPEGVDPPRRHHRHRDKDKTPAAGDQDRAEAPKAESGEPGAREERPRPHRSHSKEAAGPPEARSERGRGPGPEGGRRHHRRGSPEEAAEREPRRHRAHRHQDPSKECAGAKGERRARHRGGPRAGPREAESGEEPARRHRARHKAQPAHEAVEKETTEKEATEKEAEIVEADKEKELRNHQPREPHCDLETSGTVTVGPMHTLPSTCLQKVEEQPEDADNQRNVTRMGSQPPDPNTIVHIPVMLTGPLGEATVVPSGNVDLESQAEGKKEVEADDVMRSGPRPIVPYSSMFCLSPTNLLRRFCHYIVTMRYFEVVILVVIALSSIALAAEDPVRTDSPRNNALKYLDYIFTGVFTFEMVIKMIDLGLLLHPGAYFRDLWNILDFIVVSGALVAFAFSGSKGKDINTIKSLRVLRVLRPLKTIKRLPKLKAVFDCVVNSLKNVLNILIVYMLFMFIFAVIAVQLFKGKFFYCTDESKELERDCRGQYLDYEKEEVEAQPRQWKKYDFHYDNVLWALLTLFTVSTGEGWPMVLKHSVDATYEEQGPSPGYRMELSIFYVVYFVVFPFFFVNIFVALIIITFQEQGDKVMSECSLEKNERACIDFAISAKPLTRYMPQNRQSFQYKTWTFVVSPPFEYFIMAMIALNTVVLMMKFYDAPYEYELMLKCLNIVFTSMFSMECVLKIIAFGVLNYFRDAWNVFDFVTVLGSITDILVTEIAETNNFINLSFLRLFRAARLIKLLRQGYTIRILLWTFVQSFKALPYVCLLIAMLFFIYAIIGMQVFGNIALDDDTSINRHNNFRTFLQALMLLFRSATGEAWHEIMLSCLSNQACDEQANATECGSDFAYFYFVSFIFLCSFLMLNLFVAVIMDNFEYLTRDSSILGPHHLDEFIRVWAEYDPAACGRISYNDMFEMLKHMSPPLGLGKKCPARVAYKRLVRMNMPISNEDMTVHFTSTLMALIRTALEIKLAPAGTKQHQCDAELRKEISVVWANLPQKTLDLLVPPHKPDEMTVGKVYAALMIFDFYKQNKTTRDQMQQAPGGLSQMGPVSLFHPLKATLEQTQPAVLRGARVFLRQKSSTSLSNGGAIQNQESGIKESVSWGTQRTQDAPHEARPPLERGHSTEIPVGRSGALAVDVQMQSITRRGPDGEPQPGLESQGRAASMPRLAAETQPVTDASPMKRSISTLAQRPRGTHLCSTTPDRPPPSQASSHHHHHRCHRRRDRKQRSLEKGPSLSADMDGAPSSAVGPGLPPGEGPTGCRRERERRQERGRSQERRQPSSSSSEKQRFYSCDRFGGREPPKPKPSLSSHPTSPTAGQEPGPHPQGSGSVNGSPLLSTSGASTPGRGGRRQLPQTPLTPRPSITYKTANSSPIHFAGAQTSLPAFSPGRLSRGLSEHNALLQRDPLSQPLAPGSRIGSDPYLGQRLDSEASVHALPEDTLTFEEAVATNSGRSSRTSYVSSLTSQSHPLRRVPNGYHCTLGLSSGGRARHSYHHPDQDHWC
# Sequence (Q02410 whole entry): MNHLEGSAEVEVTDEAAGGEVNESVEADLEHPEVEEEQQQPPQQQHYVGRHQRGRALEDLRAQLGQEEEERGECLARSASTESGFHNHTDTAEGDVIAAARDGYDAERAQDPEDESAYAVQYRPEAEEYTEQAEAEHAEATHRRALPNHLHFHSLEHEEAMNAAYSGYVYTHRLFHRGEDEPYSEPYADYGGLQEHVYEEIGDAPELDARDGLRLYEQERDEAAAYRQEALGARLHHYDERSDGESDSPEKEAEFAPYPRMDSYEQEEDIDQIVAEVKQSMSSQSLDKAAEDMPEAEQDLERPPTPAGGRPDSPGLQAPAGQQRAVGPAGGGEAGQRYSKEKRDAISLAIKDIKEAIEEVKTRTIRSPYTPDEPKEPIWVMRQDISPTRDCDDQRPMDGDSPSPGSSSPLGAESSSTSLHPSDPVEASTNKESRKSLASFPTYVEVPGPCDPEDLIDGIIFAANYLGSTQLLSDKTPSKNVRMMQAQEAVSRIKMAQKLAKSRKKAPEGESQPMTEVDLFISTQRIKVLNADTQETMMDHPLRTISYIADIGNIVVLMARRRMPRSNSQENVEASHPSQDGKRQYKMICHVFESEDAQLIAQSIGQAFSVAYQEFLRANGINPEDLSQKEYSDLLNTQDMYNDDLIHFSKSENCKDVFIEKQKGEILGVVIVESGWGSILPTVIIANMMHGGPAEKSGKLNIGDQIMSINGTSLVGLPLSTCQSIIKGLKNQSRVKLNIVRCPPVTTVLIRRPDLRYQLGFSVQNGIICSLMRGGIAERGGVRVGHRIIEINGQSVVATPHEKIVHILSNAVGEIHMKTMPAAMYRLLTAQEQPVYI
# ASSAY: disruptors of Mint-PDZ/N-type channel peptide interaction – biochemical, HTRF, set 2, SAR follow-up (AID 434980)
# Format: functional
Active and inactive are the calls of the source.
In this section we review reported IC50 values for a set of molecules.

Example entries begin here.
O=C(N[C@@H]1C[C@H]1c1ccccc1)c1cc(-c2ccco2)nc2ccccc12 = 46.4 µM (active)
COc1ccc(CNC(=O)CCOC(=O)c2cc(-c3ccco3)nc3ccccc23)cc1 = 14.4 µM (active)
COc1ccccc1CNC(=O)COC(=O)c1cc(-c2ccco2)nc2ccccc12 = 7.83 µM (active)

Now, please, on to the next molecule.
Prompt: Look up IC50 for this molecule: `CC(C)(C)c1ccc(CNC(=O)c2cc(-c3ccco3)nc3ccccc23)cc1`
Completion: 39.5 µM (active)

----------
# ASSAY: THP-1 cell cytotoxicity, dose response, cytotoxicity control for non-replicating M. tuberculosis project (AID 489025)
# Assay type: functional
The source made the active and inactive calls.
PARAMETER MEASURED: CC50

CCOC(=O)c1ccc(/N=C2\SC(C(=O)Nc3ccc(C(=O)O)cc3)CC(=O)N2Cc2cccs2)cc1 (stereo unspecified) = > 40 µM (active)

Prompt: I have this compound here, `COc1ccc2nc(N=C(N)NC(=O)C(C)(C)C)nc(C)c2c1` , and I need its recorded CC50.
Completion: > 40 µM (active)

Prompt: What would you report for CCC(C)[C@H]1CN=C(N)N1CCc1cccc2ccccc12 (stereo partly specified) ?
Completion: 15.8 µM (active)

Prompt: Then this compound: O=C(Nc1ccccc1)c1nnsc1[S+]([O-])c1ccc(Cl)cc1 (stereo unspecified)
Completion: 23.4 µM (active)

Prompt: Try this compound next: `O=c1c2cc(Br)ccc2nc(-c2cccc(C(F)(F)F)c2)n1O`
Completion: 13.9 µM (active)

Prompt: Then what about the compound `COc1ccccc1-c1nnc(Sc2nc([N+](=O)[O-])nn2C)o1` ?
Completion: 13.6 µM (active)

----------
# MEASURED ON: Cytochrome P450 2C19 (Homo sapiens, UniProt P33261)
# Sequence (P33261 whole entry): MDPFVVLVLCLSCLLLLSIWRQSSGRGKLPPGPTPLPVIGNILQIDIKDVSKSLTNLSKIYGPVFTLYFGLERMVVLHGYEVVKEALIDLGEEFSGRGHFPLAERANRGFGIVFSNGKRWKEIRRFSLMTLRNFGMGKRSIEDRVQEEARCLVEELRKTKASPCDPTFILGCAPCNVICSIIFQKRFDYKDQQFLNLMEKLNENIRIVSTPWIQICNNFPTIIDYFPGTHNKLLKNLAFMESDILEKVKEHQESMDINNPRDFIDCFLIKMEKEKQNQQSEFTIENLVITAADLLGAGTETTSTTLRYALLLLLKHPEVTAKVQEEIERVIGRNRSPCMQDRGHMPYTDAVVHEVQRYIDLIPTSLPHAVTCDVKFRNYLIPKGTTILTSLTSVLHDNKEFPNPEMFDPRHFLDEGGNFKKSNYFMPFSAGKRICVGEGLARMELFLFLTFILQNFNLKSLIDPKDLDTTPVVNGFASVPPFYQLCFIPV
# ASSAY: Cytochrome panel assay with activity outcomes. Panel member name: p450-cyp2c19 Compounds with AC50 equal or less than 10 uM are considered active
# Type: functional
# CONDITION CONTEXT: read-out: AC50
AC50 by entry:

O=C(NC(=S)Nc1ccc(Oc2ccc(Cl)cc2)cc1)c1ccccc1 = 7.08 µM (inconclusive)

Continue with the molecule presented below.
Prompt: Kindly state the measured AC50 obtained for `Cc1ccc(C(=O)Nc2c(C#N)c(C)c(C)n2Cc2ccccc2)cc1` with Cytochrome P450 2C19 (Homo sapiens, UniProt P33261).
Completion: 0.447 µM (inconclusive)

----------
# MEASURED ON: Heat shock factor protein 1 (Mus musculus)
# Sequence (P38532 whole entry): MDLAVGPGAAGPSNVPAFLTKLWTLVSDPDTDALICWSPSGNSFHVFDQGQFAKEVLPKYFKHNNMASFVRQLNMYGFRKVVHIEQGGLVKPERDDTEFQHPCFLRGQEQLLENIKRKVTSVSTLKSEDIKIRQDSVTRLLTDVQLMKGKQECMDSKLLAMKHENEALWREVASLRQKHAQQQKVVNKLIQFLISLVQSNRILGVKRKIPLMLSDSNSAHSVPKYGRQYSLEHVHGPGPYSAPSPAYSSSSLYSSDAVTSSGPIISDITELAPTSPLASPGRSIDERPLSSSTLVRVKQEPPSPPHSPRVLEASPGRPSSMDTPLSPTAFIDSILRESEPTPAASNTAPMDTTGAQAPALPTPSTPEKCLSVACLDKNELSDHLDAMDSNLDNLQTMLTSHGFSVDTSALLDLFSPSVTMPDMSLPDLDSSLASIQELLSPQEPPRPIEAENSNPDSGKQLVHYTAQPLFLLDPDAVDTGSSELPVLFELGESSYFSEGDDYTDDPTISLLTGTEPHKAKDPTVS
# ASSAY: decrease of HSF1-responsive luciferase luminescence – cell-based, NIH3T3, dose retest, confirmation (AID 2382);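 also: NIH3T3 fibroblasts with HSF1-driven luciferase reporter stressed by proteasome inhibitor MG132; luminescence from HSF1-driven luciferase expression after 8 hours of MG132 stress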
# Format: functional
# maps each entry to its EC50

Answered cases to consult:
O=C(CSc1ccccc1)Nc1cccc(NC(=O)c2ccco2)c1 = > 195 µM (not active)
CC1OC(Nc2cccc3ccccc23)C(O)C(O)C1O (centres undefined) = > 195 µM (not active)
COc1cccc(/C=N/NC(=O)c2cnccn2)c1 = > 195 µM (not active)

Continue with the molecule presented below.
Prompt: Report EC50 for `CCc1nn2c(=O)c(S(=O)(=O)Nc3cccc(F)c3)c(C)nc2s1` please.
Completion: > 195 µM (not active)
